Where do the numbers come from? From patent US9580430B2.

test system: MOLM-13; experiment: Cell growth inhibition, MOLM-13 leukemia cells (CellTiter-Glo); type: cell-based; settings: Homo sapiens, MOLM-13, 96 h; 4 days; read-out: IC50 (nM) MOLM-13 Cell Line (CellTiter-Glo assay)
measuredAttribute: IC50 (nM)

I. COc1cc2c(cc1-c1c(C)noc1C)[nH]c1nc(C)nc(Nc3c[nH]c4ncccc34)c12 [Cpd. No. 102]
II. COc1cc2c(cc1-c1c(C)noc1C)[nH]c1nc(C)nc(Nc3c4c(nn3C(C)C)CCC4)c12 [Cpd. No. 137]
III. COc1cc2c(cc1-c1c(C)noc1C)[nH]c1nc(C)nc(Nc3ccnn3C(C)(C)C)c12 [Cpd. No. 183]
IV. COc1cc2c(cc1-c1c(C)noc1C)[nH]c1nc(C)nc(Nc3cccc4cnccc34)c12 [Cpd. No. 221]
Lookup: Arrange the 4 compounds from largest to smallest IC50. Please reply with the labels ordered as requested. Many thanks.
Found: I, IV, III, II

====

molecular target: recombinant BRD4 BD2 (Homo sapiens, UniProt O60885); construct: for recombinant BRD4 BD1 and BRD4 BD2 proteins; assay: Competitive fluorescence-polarization (FP) binding assay, BRD4 BD2; conditions: FP competitive binding, BRD4 BD2; read-out: Binding affinities (FP) BRD4BD2 IC50
pIC50: −log10 of the molar value.
measuredAttribute: pIC50

A. COc1cc2c(cc1-c1c(C)noc1C)[nH]c1nc(C)nc(Nc3cc(C4CC4)nn3C[C@H](O)CO)c12
B. COc1nc2c(cc1-c1c(C)noc1C)[nH]c1nc(C)nc(Nc3cccc(C)c3)c12
C. COc1cc2c(cc1-c1c(C)noc1C)[nH]c1nc(CS(C)(=O)=O)nc(Nc3cc(C4CC4)nn3C)c12
D. COc1c(-c2c(C)noc2C)cc2[nH]c3nc(C)nc(Nc4cc(C5CC5)nn4C)c3c2c1F
Lookup: Arrange the 4 compounds from largest to smallest pIC50. Please reply with the labels ordered as requested. Many thanks.
Found: C, A, D, B

P. COc1cc2c(nc1-c1c(C)noc1C)[nH]c1nc(C)nc(Nc3cc(C4CC4)nn3C)c12
Q. COc1nc2c(cc1-c1c(C)noc1C)[nH]c1nc(C)nc(N(C)c3cc(C4CC4)nn3C)c12
R. COc1cc2c(cc1-c1c(C)noc1C)[nH]c1nc(C)nc(Nc3cc(C4CC4)nn3CC3COCCO3)c12 (stereo not shown)
Lookup: Thanks in advance: please rank these 3 entries by pIC50, highest to lowest. Please reply with the labels ordered as requested. Many thanks.
Found: R, Q, P
(R: 9.30, Q: 8.15, P: 6.50)

====

biological target: recombinant BRD4 BD2 (Homo sapiens); construct: for recombinant BRD4 BD1 and BRD4 BD2 proteins; experiment: Competitive fluorescence-polarization (FP) binding assay, BRD4 BD2; details: competitive FP assay; protein 6 nM, probe […]; read-out: IC50 (nM) BRD4 BD2
measuredAttribute: IC50 (nM)

recordSmiles	IC50, nM
COc1cc2c(cc1-c1c(C)noc1C)[nH]c1nc(C)nc(Nc3cc(C4CC4)nn3C(C)C)c12	5.4

a. COc1cc2c(cc1-c1c(C)noc1C)[nH]c1nc(C)nc(Nc3c4c(nn3CCO)CCC4)c12
b. COc1cc2c(cc1-c1c(C)noc1C)[nH]c1nc(C)nc(Nc3cnn4cccnc34)c12
c. COc1ccc2c(Nc3nc(C)nc4[nH]c5cc(-c6c(C)noc6C)c(OC)cc5c34)nn(C)c2c1
Lookup: Sort ascending by IC50. Please reply with the labels ordered as requested. Many thanks.
Found: a, b, c
(a: 7.2 nM, b: 194 nM, c: 613 nM)

====

biological target: recombinant BRD4 BD2 (Homo sapiens); construct: for recombinant BRD4 BD1 and BRD4 BD2 proteins; experiment: Competitive fluorescence-polarization (FP) binding assay, BRD4 BD2; details: competitive FP assay; protein 6 nM, probe […]; read-out: IC50 (nM) BRD4 BD2
measuredAttribute: IC50 (nM)

# count of solved cases: 6
compound	IC50 [nM]
COc1cc2c(cc1-c1c(C)noc1C)[nH]c1nc(C)nc(Nc3cc(C)ccc3C)c12 [Cpd. No. 238]	3
COc1cc2c(cc1-c1c(C)noc1C)[nH]c1nc(C)nc(Nc3cnccc3C)c12 [Cpd. No. 109]	253
CCn1nc2c(c1Nc1nc(C)nc3[nH]c4cc(-c5c(C)noc5C)c(OC)cc4c13)CCCC2 [Cpd. No. 142]	0.5
COc1cc2c(cc1-c1c(C)noc1C)[nH]c1nc(C)nc(Nc3nn(C)c4ccncc34)c12 [Cpd. No. 11]	235
COCCn1nc(C2CC2)cc1Nc1nc(C)nc2[nH]c3cc(-c4c(C)noc4C)c(OC)cc3c12 [Cpd. No. 266]	3.1
COc1cc2c(cc1-c1c(C)noc1C)[nH]c1nc(C)nc(Nc3n[nH]c(C)c3-c3ccccc3)c12 [Cpd. No. 5]	381

A. COc1cc2c(cc1-c1c(C)noc1C)[nH]c1nc(C)nc(Nc3c4c(nn3C3CC3)CCC4)c12 [Cpd. No. 148]
B. COc1cc2c(cc1-c1c(C)noc1C)[nH]c1nc(C)nc(Nc3ccc(F)c(Cl)c3)c12 [Cpd. No. 107]
C. COc1cc2c(cc1-c1c(C)noc1C)[nH]c1nc(C)nc(Nc3sc(C)nc3C)c12 [Cpd. No. 177]
D. COc1cc2c(cc1-c1c(C)noc1C)[nH]c1nc(C)nc(Nc3cc(C)nn3-c3cccc(Cl)c3)c12 [Cpd. No. 7]
E. COc1cc2c(cc1-c1c(C)noc1C)[nH]c1nc(C)nc(Nc3c(C4CC4)c(C)nn3C)c12 [Cpd. No. 140]
Lookup: Sort ascending by IC50. Please reply with the labels ordered as requested. Many thanks.
Found: A, C, B, E, D

A. COc1cc2c(cc1-c1c(C)noc1C)[nH]c1nc(C)nc(Nc3c(C)c(C)nn3C3CC3)c12 [Cpd. No. 188]
B. COc1cc2c(cc1-c1c(C)noc1C)[nH]c1nc(C)nc(NC3CCCCC3)c12 [Cpd. No. 112]
C. COc1cc2c(cc1-c1c(C)noc1C)[nH]c1nc(C)nc(Nc3c(C)cnn3C3CCCC3)c12 [Cpd. No. 135]
Lookup: Thanks in advance: please rank these 3 entries by IC50, highest to lowest. Please reply with the labels ordered as requested. Many thanks.
Found: B, A, C

a. COc1cc2c(cc1-c1c(C)noc1C)[nH]c1nc(C)nc(Nc3cncc(Cl)c3)c12 [Cpd. No. 106]
b. CCc1nn(C)c(Nc2nc(C)nc3[nH]c4cc(-c5c(C)noc5C)c(OC)cc4c23)c1C [Cpd. No. 169]
c. COc1cc2c(cc1-c1c(C)noc1C)[nH]c1nc(C)nc(Nc3cc(C(F)(F)F)nn3C)c12 [Cpd. No. 21]
Lookup: Thanks in advance: please rank these 3 entries by IC50, highest to lowest. Please reply with the labels ordered as requested. Many thanks.
Found: a, c, b

P. COc1cc2c(cc1-c1c(C)noc1C)[nH]c1nc(C)nc(Nc3cc(C(C)(C)C)nn3C)c12 [Cpd. No. 120]
Q. COc1cc2c(cc1-c1c(C)noc1C)[nH]c1nc(C)nc(Nc3cc(C(C)(C)C)n[nH]3)c12 [Cpd. No. 126]
Lookup: Out of P and Q , name the one with the higher IC50. Write the label of whichever entry you select.
Found: Q
(Q: 32.8 nM, P: 5.8 nM)

I. COc1cc2c(cc1-c1c(C)noc1C)[nH]c1nc(C)nc(Nc3cc(C)nn3C3CCCC3)c12 [Cpd. No. 118]
II. COc1cc2c(cc1-c1c(C)noc1C)[nH]c1nc(C)nc(Nc3cccc4c3CCO4)c12 [Cpd. No. 234]
III. CCn1nc(C2CC2)c(F)c1Nc1nc(C)nc2[nH]c3cc(-c4c(C)noc4C)c(OC)cc3c12 [Cpd. No. 250]
IV. COc1cc2c(cc1-c1c(C)noc1C)[nH]c1nc(C)nc(Nc3nn(C)cc3C)c12 [Cpd. No. 77]
Lookup: Thanks in advance: please rank these 4 entries by IC50, highest to lowest. Please reply with the labels ordered as requested. Many thanks.
Found: IV, II, III, I
(IV: 168 nM, II: 25 nM, III: 14 nM, I: 3.4 nM)

a. COc1cc2c(cc1-c1c(C)noc1C)[nH]c1nc(C)nc(Nc3cnn4c3CCCC4)c12 [Cpd. No. 139]
b. COc1cc2c(cc1-c1c(C)noc1C)[nH]c1nc(C)nc(Nc3nn(C)c4c3CCCC4)c12 [Cpd. No. 124]
Lookup: Lower value for measured IC50? Options: a , b Write the label of whichever entry you select.
Found: a

A. COc1cc2c(cc1-c1c(C)noc1C)[nH]c1nc(C)nc(Nc3c(C)c(C)nn3C3CCC3)c12 [Cpd. No. 187]
B. COc1cc2c(cc1-c1c(C)noc1C)[nH]c1nc(C)nc(Nc3cccc4cnccc34)c12 [Cpd. No. 221]
C. COc1cc2c(cc1-c1c(C)noc1C)[nH]c1nc(C)nc(Nc3cn(C)nc3C)c12 [Cpd. No. 34]
Lookup: Thanks in advance: please rank these 3 entries by IC50, highest to lowest. Please reply with the labels ordered as requested. Many thanks.
Found: B, C, A
(B: 57 nM, C: 28.7 nM, A: 10.9 nM)

a. COc1cc2c(cc1-c1c(C)noc1C)[nH]c1nc(C)nc(Oc3cncc(Br)c3)c12 [Cpd. No. 105]
b. COc1cc2c(cc1-c1c(C)noc1C)[nH]c1nc(C)nc(Nc3cc(Cl)ccc3F)c12 [Cpd. No. 224]
Lookup: Lower value for measured IC50? Options: a , b Write the label of whichever entry you select.
Found: b
